B1: library; numbered along this chain (parent)
chain: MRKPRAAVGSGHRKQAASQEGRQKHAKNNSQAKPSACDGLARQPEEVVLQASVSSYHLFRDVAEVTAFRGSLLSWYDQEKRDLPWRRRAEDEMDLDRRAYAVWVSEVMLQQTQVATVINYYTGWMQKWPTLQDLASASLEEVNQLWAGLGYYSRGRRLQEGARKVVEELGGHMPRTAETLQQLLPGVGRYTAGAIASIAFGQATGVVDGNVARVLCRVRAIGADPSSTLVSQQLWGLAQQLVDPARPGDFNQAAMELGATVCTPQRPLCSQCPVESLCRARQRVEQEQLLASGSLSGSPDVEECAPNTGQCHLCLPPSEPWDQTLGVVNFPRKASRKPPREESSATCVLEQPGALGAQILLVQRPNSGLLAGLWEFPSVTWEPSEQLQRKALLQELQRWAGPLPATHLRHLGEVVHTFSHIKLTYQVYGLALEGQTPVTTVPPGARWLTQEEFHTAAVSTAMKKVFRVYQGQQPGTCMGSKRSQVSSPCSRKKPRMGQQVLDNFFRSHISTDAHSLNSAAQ

Variants of: B1
method: 8OG:A repair function score (normalized; synonymous = 0, nonsense = -1) (normalized log-likelihood score); higher = more repair activity (WT-like);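 note: cells sorted at 72 h after reporter transfection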
reported.conditions: with 8OG:A DNA repair reporter (GFP) in HEK-293 MUTYH KO cells
measured.property: 8OG:A repair function score
One number for each entry.

In the examples that follow, each entry is paired with its recorded 8OG:A repair function score.
| mutation | assay.result |
| --- | --- |
| E46P | 0.0495 |
| L184T | -0.62 |
| S335I | -0.000462 |
| Y56W | 0.00662 |
| W128V | -0.224 |
| P317E | -0.0108 |
| S294D | -0.0514 |
| T116E | -0.305 |
| S419V | -0.259 |
| T406F | -0.539 |

Would you mind listing 8OG:A repair function score for each of the following variants?
1. L49W
2. G201R
3. G479D
4. G171D
5. E451G
6. F250A

1: -0.109; 2: -0.0601; 3: 0.0194; 4: -0.296; 5: -0.0413; 6: -0.516

Cited source for all entries: the supplement of paper PMC11908140
